Origin of the recorded values: patent US20250346571A1

Recorded measurements of bioavailability, one per entry
- experiment description: Pharmacokinetic test in rats
- Format: in vivo, SD rats
- measurement setup: male, SD, rat, plasma, po; rats, i.g. 10 mg/kg

Answered cases to consult:
smiles representation	measured attribute	measured result
Cn1cc(C(=O)Nc2ccc(N3CCN(Cc4ccc5nc(C(F)F)c(=O)[nH]c5c4F)CC3)c(F)n2)c(F)n1	bioavailability	≥ 98%
Cc1nc2ccc(CN3CCN(c4ccc(C(=O)N[C@@H]5C[C@@H]5F)nc4F)CC3)c(F)c2[nH]c1=O	bioavailability	≥ 98%

State the recorded bioavailability for this entry: "O=C(NC1CC1)c1ccc(N2CCN(Cc3ccc4nc(C(F)F)c(=O)[nH]c4c3F)CC2)c(F)n1" ≥ 98%
